Provide the reported Kb of each item.
Molecular target: UniProtKB Q13304
Sequence (Q13304 29-367 limits assumed): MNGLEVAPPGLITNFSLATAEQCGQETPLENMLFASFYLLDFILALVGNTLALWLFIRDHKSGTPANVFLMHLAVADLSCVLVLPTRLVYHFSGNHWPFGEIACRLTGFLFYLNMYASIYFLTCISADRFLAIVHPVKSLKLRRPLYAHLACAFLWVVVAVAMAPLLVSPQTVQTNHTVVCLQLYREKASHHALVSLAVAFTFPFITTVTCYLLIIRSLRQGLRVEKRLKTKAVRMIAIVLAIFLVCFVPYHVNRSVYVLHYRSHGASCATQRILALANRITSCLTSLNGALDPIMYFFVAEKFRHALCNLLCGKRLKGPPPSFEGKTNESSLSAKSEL
Experiment: cAMP accumulation functional assay (HTRF), Schild analysis against MDL29,951 in CHO hGPR17
Format: cell-based
Parameters: host or cells: Flp-In T-REx CHO
Conditions: CHO hGPR17, Schild analysis vs MDL29,951, 5 μM forskolin; read-out: cAMP assay pA2 (converted)
Procedure: Flp-In T-REx CHO cells stably expressing human GPR17 receptor (CHO hGPR17) from Evi Kostenis' lab (Bonn University, Germany) were cultured at 37° C. in a humidified atmosphere of 5% CO2. […] GPR17 activation can also recruit Gi-type G-protein signaling, resulting in a decrease of intracellular cyclic adenosine monophosphate (cAMP). Intracellular cAMP changes can be measured using the HTRF cAMP dynamic assay kit from CisBio (Codolet, France). […]

Some solved entries appear below for comparison.
compound: COCCn1cc(S(=O)(=O)Nc2cc(F)c(OC(F)F)cc2F)c2ccc(Cl)cc21
observed: 31.6 to 316 nM
//
compound: O=S(=O)(Nc1cc(F)c(Br)cc1F)c1cn(CC(F)CO)c2cc(Cl)ccc12 (centres unmarked)
observed: 3.16 to 31.6 nM
//
compound: O=S(=O)(Nc1cc(F)c(OC(F)F)cc1F)c1cn(CCO)c2cc(Cl)ccc12
observed: 3.16 to 31.6 nM

I have 7 compounds here; please give me Kb for each one.
1. COc1nc(NS(=O)(=O)c2cn(CCO)c3cc(Cl)ccc23)ccc1Br
2. O=S(=O)(Nc1cc(F)c(Br)cc1F)c1cn(CC(O)C(F)(F)F)c2cc(Cl)ccc12 (centres unmarked)
3. O=S(=O)(Nc1cc(F)c(Br)cc1F)c1cn(CC(F)F)c2nc(Cl)ccc12
4. COc1nc(Cl)c(F)cc1NS(=O)(=O)c1cn(CC(O)CO)c2cc(Cl)ccc12 (centres unmarked)
5. O=S(=O)(Nc1cc(F)c(Br)cc1F)c1cn(CC(O)CO)c2nc(Cl)ccc12 (centres unmarked)
6. CN(C)CCn1cc(S(=O)(=O)Nc2cc(F)c(Br)cc2F)c2ccc(Cl)cc21
7. COc1nc(OC(F)F)c(F)cc1NS(=O)(=O)c1cn(CCO)c2nc(Cl)ccc12

1. 31.6 to 316 nM
2. 3.16 to 31.6 nM
3. 31.6 to 316 nM
4. 3.16 to 31.6 nM
5. 3.16 to 31.6 nM
6. 31.6 to 316 nM
7. ≤ 3.16 nM

I have 2 compounds here; please give me Kb for each one.
1. O=S(=O)(Nc1cc(F)c(OC(F)F)cc1F)c1cn(CC(F)F)c2nc(Cl)ccc12
2. O=S(=O)(Nc1cc(F)c(Br)cc1F)c1cn(CCO)c2nc(Cl)ccc12

["31.6 to 316 nM", "3.16 to 31.6 nM"]

I have 2 compounds here; please give me Kb for each one.
1. O=C(O)Cn1cc(S(=O)(=O)Nc2cc(F)c(Br)cc2F)c2ccc(Cl)cc21
2. O=S(=O)(Nc1cc(F)c(Br)cc1F)c1cn(CC(O)CF)c2cc(Cl)ccc12 (centres unmarked)

["≤ 3.16 nM", "3.16 to 31.6 nM"]

I have 3 compounds here; please give me Kb for each one.
1. O=S(=O)(Nc1cc(F)c(Br)cc1F)c1cn(CCCl)c2cc(Cl)ccc12
2. O=S(=O)(Nc1cc(F)c(OC(F)F)cc1F)c1cn(CCF)c2cc(Cl)ccc12
3. CC(=O)Cn1cc(S(=O)(=O)Nc2cc(F)c(Br)cc2F)c2ccc(Cl)cc21

["31.6 to 316 nM", "3.16 to 31.6 nM", "31.6 to 316 nM"]
